Data origin: patent US20150361176A1

# System name: T1, recombinant human TGF-β RII/Fc chimera protein (human, UniProt P37173 24-159)
# T1 construct: range 24-159; Made in HEK-F cells; Biotinylated where it was put on SA chips, otherwise captured by anti-human IgG; also called human TGFbRII/Fc; hRII-Fc; not shown: Fc region of human IgG1
# T1 sequence (P37173 24-159 limits assumed, change not shown): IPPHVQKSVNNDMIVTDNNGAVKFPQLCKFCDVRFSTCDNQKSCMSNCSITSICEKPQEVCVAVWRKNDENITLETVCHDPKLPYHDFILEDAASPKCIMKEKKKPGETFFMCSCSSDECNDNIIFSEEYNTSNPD
# Protocol description: SPR Biacore, purified dAb; antigen taken as human TGF-β RII/Fc
Observable: pKd
Worth noting: pKd values are minus log10 of concentrations stated in mol/L.

Exercise: Let me know recorded pKd for DOM23h-439-20 (VHH, human VH dAb, error-prone matured; expressed from pDOM13, tag not described) VHH: EVQLLESGGGLVQPGGSLRLSCAASGFTFGTEQMWWVRQAPGKGLEFVSRIDSPGGRTYYADSVKGRFTISRDNSKNTLYLQMNSLRAEDTAVYYCAKRHAAGVSGTYFDYWGQGTLVTVSS , thanks.
Key: 9.10

Exercise: Fill in reported pKd for this entry: DOM23h-855 (VHH, human VH domain antibody (dAb), naive lead; parent of DOM23h-855-21; not shown: C-terminal FLAG tag from vector pDOM10) VHH: EVQLLESGGGLVQPGGSLRLSCAASGFTFENTSMGWVRQAPGKGLEWVSRIDPKGSHTYYADSVKGRFTISRDNSKNTLYLQMNSLRAEDTAVYYCAKQRELGKSHFDYWGQGTLVTVSS
Key: 6.03

Exercise: Consider the binder DOM23h-855-21 (VHH, human VH dAb, error-prone matured; expressed from pDOM13, tag not described) VHH: EVQLLESGGGLVQPGGSLRLSCAASGFTFENTSMGWVRQAPGKGLEWVSRIDPKGSHTYYTDSVKGRFTISRDNSKNTLYLQMNSLRAEDTAVYYCAKQRELGKSYFDYWGQGTLVTVSS and give its recorded pKd.
Key: 7.74

Exercise: In one line, give reported pKd of the entry DOM23h-843 (VHH, human VH domain antibody (dAb), naive lead; parent of DOM23h-843-13; not shown: C-terminal FLAG tag from vector pDOM10) VHH: EVQLLESGGGLVQPGGSLRLSCAASGFTFDQDRMWWVRQAPGKGLEWVSAIESGGHRTYYADSVKGRFTISRDNSKNTLYLQMNSLRAEDTAVYYCAKQNESGRSGFDYWGQGTLVTVSS .
Key: 6.42
